- Test system: NCI-H522
- protocol details: NCI tumour cell line growth inhibition, 48 h
Calls of active or inactive are those of the source. Rule as the data show it: active = GI50 up to about 1.1 µM and inactive = higher. Where a SMILES comes first, the peptide text is derived from it. [ ]: non-standard residue; d: D form. The star is where a group is joined. ξ: configuration not given here. ξF = NC(Cc1ccccc1)C(=O)O; Cbz = O=C(OCc1ccccc1)*; Aib = CC(C)(N)C(=O)O
Lab note: assign the record to one of class 1 = active, class 0 = inactive

Here's what some known entries look like.
{"columns": ["molecule", "label value"],
 "data": [
  ["COC(=O)C(C)(C)NC(=O)C(Cc1ccccc1)NC(=O)C(C)(C)NC(=O)OCc1ccccc1 (stereo not given) (Cbz-[Aib]-[ξF]-[Aib]-OMe)", "class 0"],
  ["CN(C)C(=S)SCc1ccccc1", "class 0"],
  ["CCOC(=O)C1=C(Nc2ccccc2)OC/C1=N\\NC(=O)Cc1ccccc1", "class 0"],
  ["CCOP(=O)(CCCC(O)CNc1nc(N)nc(Cl)c1/N=N/c1ccc(Cl)cc1)OCC (stereo not given)", "class 0"]
]}

Incoming: Tell me the recorded outcome of this test for C(=N\c1ccc2c(c1)Cc1ccccc1-2)/c1ccccn1 .
Outgoing: class 0

Incoming: Give the logged outcome of this assay for the following molecule: Fc1ccccc1C1SCc2nc3cc4ccccc4cc3n21 (stereo not given)
Outgoing: class 0

Incoming: How did this test come out for NC(=O)OCC1=C(COC(N)=O)C(=O)c2c(O)ccc(O)c2C1=O ?
Outgoing: class 0

Incoming: Just curious, what result did O=C(O)Cc1ccc2nc(COC(=O)c3ccccc3)sc2c1 get here?
Outgoing: class 0

Incoming: Called result for O=C(Nc1ccc(Cl)c(C(F)(F)F)c1)C(=O)c1c(O)c2ccccc2oc1=O
Outgoing: class 0

---

- Test system: HL-60
- protocol details: NCI tumour cell line growth inhibition, 48 h
Activity calls are given as the source filed them. Rule as the data show it: active = GI50 up to about 1.1 µM and inactive = higher.
Outcome field: choose from 1 (active), -1 (inactive)

Example entries begin here.
{"columns": ["compound", "target under test", "label value"],
 "data": [
  ["CC(=O)NC(C)(C)C1CC=C(C)CC1 (stereo not given)", "HL-60", -1],
  ["O=NN(CCF)C(=O)NC1CCSCC1", "HL-60", -1],
  ["c1ccc(C2C(=P(c3ccccc3)(c3ccccc3)c3ccccc3)P=PC2[P+](c2ccccc2)(c2ccccc2)c2ccccc2)cc1.c1ccc([B-](c2ccccc2)(c2ccccc2)c2ccccc2)cc1 (stereo not given)", "HL-60", 1],
  ["O=C1N2CCc3c([nH]c4ccccc34)C23CC2CCCCC12S3 (stereo not given)", "HL-60", -1]
]}

Could you now look at the following compound, please?
Incoming: # fetch the recorded call for C=C/C=C/NC(=O)OCc1ccccc1 here
Outgoing: -1

---

- Test system: SR
- protocol details: NCI tumour cell line growth inhibition, 48 h
Activity calls are given as the source filed them. No stated cut-off is given here; in the data, active = GI50 up to about 1.1 µM and inactive = higher.
The reply should name one outcome from active, inactive

Known results for molecules:
{"columns": ["molecule", "label value"],
 "data": [
  ["O=C1NC2(C=Cc3c(ccc4ccccc34)O2)Oc2ccccc21 (stereo not given)", "inactive"],
  ["O=C(Nn1c(-c2ccccc2)nc2ccccc2c1=O)c1ccccc1O", "inactive"],
  ["Cc1ccccc1NC(=O)CC(=O)N1N=C(N2c3ccccc3Sc3ccccc32)CC1c1ccccc1 (stereo not given)", "inactive"],
  ["C=C[C@H]1CN2CCc3c([nH]c4c([C@@H]5CCCN5C)c(O)ccc34)[C@@H]2C[C@@H]1C[C@H]1c2[nH]c3ccccc3c2CCN1C", "active"]
]}

Incoming: What is the recorded call for this molecule in the test? CCN(CCN(CC)C(=O)NC)C(=O)NC
Outgoing: inactive

---

- Test system: SR
- protocol details: NCI tumour cell line growth inhibition, 48 h
Active and inactive are the calls of the source. Cut-off read from the data, not from the text of the source: active = GI50 up to about 1.1 µM and inactive = higher.
Listed here are compounds together with their documented GI50.

{"columns": ["compound", "observation type", "val"],
 "data": [
  ["O=C1C(c2c(O)[nH]c3ccc([N+](=O)[O-])cc23)=Nc2ccccc21", "GI50", "30.3 µM (inactive)"],
  ["Cn1c(=O)n2n(c1=O)Cc1cccc3cccc(c13)C2", "GI50", "> 100 µM (inactive)"],
  ["O=C(Cn1cc(Br)c(=O)[nH]c1=O)c1ccc(-c2ccccc2)cc1", "GI50", "> 17 µM (inactive)"],
  ["OCCN1CCN2C=C(C3CCCC4N(CCO)CCN34)CCC21 (stereo unspecified)", "GI50", "5.68 µM (inactive)"],
  ["CC(=O)Nc1ccc(S(=O)(=O)NN(C)S(=O)(=O)c2ccc(C)cc2)cc1", "GI50", "> 100 µM (inactive)"]
]}

Incoming: Need GI50, item CSc1c(C#N)c(N)nc2c(/N=N\c3ccc(Cl)cc3)c(N)nn12
Outgoing: 2.55 µM (inactive)

Incoming: Record request: GI50 value, item O=C(Nc1ccc(Cl)c(C(F)(F)F)c1)C(=O)c1c(O)c2ccccc2oc1=O
Outgoing: > 100 µM (inactive)

Incoming: Given the entry CC(=O)NC1=C(NCC(C)(C)C)C(=O)c2ccccc2C1=O , report its measured GI50.
Outgoing: > 100 µM (inactive)

Incoming: Requested field: GI50. Item: CCOC(=O)c1cnc2[nH]c(=O)c3ccccc3n2c1=O
Outgoing: > 100 µM (inactive)

Incoming: I would be grateful if you could share the reported GI50 for O=C1Nc2c(Cl)cc(Cl)cc2/C1=N/Nc1ccccc1[N+](=O)[O-] .
Outgoing: 5.45 µM (inactive)

Incoming: Would you mind telling me what GI50 value was observed for N#CC1Nc2ccccc2[C@@H](O)C1O (stereo partly specified) ?
Outgoing: > 100 µM (inactive)

---

- Tested on: Hs-578T
- protocol details: NCI tumour cell line growth inhibition, 48 h
Activity calls are given as the source filed them. Rule as the data show it: active = GI50 up to about 1.1 µM and inactive = higher.
Parameter call: string, one of yes (active), no (inactive)

Worked examples follow.
{"columns": ["compound", "label value"],
 "data": [
  ["Nc1c2ccccc2nc2ccc(C(=O)Nc3ccc(S(N)(=O)=O)cc3)cc12", "no"],
  ["CCCCCCCCCC[C@@H](O)[C@H]1CC[C@@H]([C@H]2CC[C@H]([C@H](O)CCCCCCCCCC[C@@H]3CC(CC(C)=O)C(=O)O3)O2)O1 (stereo not given in full)", "yes"],
  ["O=Cc1ccc(-c2ccc(-c3ccc(CO)s3)o2)s1", "no"]
]}

Incoming: What did the test return for COc1ccc2c(c1)CCCc1c-2nc2ccccc2c1N ?
Outgoing: no

Incoming: // outcome(item) with item = CC(C)CC(NC(=O)C(O)C(N)Cc1ccccc1)C(=O)O (stereo not given)
Outgoing: no

Incoming: Recorded test outcome, item Fc1cccc(F)c1C1SCc2nc3cc(Cl)ccc3n21 (stereo not given)
Outgoing: no

Incoming: Fill in: this test's call for Cc1cccc2c(N)c3cccc(C(=O)NCC[N+](C)(C)Cc4ccccc4[N+](=O)[O-])c3nc12 is ___
Outgoing: no

Incoming: Hi, do you know how COc1ccc(NC2=NCCO2)c2ccccc12 came out in this test?
Outgoing: no

Incoming: Just curious, what result did O=C(CSCC(=O)N/N=C/c1cccs1)N/N=C/c1cccs1 get here?
Outgoing: no

Incoming: What did this assay record as the result for NCCc1ccc2c(c1)C(=O)c1c(O)ccc(O)c1C2=O ?
Outgoing: no

---

- Tested on: NCI-H23
- protocol details: NCI tumour cell line growth inhibition, 48 h
Activity calls are given as the source filed them. Cut-off read from the data, not from the text of the source: active = GI50 up to about 1.1 µM and inactive = higher.
observation type: GI50

Below: 5 compounds and their reported GI50.
{"columns": ["compound", "target under test", "GI50"],
 "data": [
  ["COC(=O)C1=CC2CC1C(S(=O)(=O)c1ccccc1)C2S(=O)(=O)c1ccccc1 (centres undefined)", "NCI-H23", "18.1 µM (inactive)"],
  ["O=c1c2cc(I)ccc2nc(-c2cccs2)n1Nc1ccccc1", "NCI-H23", "19.9 µM (inactive)"],
  ["C/C=C1\\CN(C(=O)OC(C)(C)C)C1C(=O)OC(C)(C)C (centres undefined)", "NCI-H23", "> 100 µM (inactive)"],
  ["COC(=O)C(Cc1nc2ccccc2nc1C)/C(=N\\NC(N)=O)C(=O)Nc1cccc([N+](=O)[O-])c1 (centres undefined)", "NCI-H23", "71.8 µM (inactive)"],
  ["CC1CC2C(=O)N(c3ccccc3)C(=O)C2c2[nH]c3ccccc3c21 (centres undefined)", "NCI-H23", "58.9 µM (inactive)"]
]}

Next:
Incoming: Please give the measured GI50 for this compound: O=C(NCCCCCCCCNC(=O)c1cnc2ccccc2n1)c1cnc2ccccc2n1
Outgoing: > 100 µM (inactive)

---

- Test system: NCI-H226
- protocol details: NCI tumour cell line growth inhibition, 48 h
Active and inactive are the calls of the source. Cut-off read from the data, not from the text of the source: active = GI50 up to about 1.1 µM and inactive = higher.
One label from this list, please: 1 = active, 0 = inactive

Study these solved cases before continuing.
{"columns": ["compound", "label value"],
 "data": [
  ["COC(=O)C1=C(C(=O)OC)C(Cc2ccccc2)(OO)OC1=O (stereo unspecified)", 0],
  ["CCOC(=O)CC(c1ccccc1)C(C)(C(=O)OCC)C(=O)OCC (stereo unspecified)", 0],
  ["O=Cc1c(Br)[nH]c2ccccc12", 0]
]}

Incoming: Identify the outcome logged in this assay for the compound shown: CC[C@@]1(O)C(=O)OCc2c1cc1n(c2=O)Cc2c-1nc1ccccc1c2/C=N\NC(=O)C(N)=O
Outgoing: 1

Incoming: Any idea what this test logged for Cn1cc(C(=O)c2nccc3c2cnc2ccccc23)ccc1=O ?
Outgoing: 0

Incoming: What outcome does the record of this test show for O=c1c(O)c(-c2ccc(O)cc2O)oc2cc(O)cc(O)c12 [MORIN] ?
Outgoing: 0

Incoming: Could you please tell me the result logged for CN(C)CCNC(=O)Cn1cc([N+](=O)[O-])c(=O)c2ccccc21 in this assay?
Outgoing: 0

Incoming: Tell me the assay call for Cc1cc(C(C)(C)C)cc(Cc2cc(C(C)(C)C)cc(Cc3cc(C(C)(C)C)cc(C)c3O)c2O)c1O please.
Outgoing: 0
